- tested-target: Neuronal acetylcholine receptor subunit alpha-7 (Homo sapiens, UniProt P36544)
- Sequence (P36544 whole entry): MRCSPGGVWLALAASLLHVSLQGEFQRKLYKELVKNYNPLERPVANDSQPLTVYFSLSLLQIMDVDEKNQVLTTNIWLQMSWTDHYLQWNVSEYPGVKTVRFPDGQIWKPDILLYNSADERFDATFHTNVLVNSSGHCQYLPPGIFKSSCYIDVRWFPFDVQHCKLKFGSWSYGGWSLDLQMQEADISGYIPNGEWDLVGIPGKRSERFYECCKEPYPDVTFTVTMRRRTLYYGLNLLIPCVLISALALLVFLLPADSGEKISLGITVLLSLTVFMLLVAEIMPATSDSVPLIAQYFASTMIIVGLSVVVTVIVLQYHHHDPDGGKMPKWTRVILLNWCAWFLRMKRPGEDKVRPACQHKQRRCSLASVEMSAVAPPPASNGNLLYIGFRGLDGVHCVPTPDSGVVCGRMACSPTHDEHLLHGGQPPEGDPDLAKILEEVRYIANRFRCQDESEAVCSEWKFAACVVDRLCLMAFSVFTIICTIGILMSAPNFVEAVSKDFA
- method-notes: Silent agonist activity at human alpha7 nAChR expressed in Xenopus laevis oocytes assessed as induction of PNU-120596-stimulated peak current
measure: pIC50
A value of pIC50 is the negative decimal logarithm of a concentration given in moles per litre.

Lab note: measured pIC50 of `c1ccc(-c2cncc(C3=NCCCC3)c2)cc1` was 4.39
